# measurement target: SHP2 protein (Homo sapiens, UniProt Q06124)
# Sequence (Q06124 whole entry): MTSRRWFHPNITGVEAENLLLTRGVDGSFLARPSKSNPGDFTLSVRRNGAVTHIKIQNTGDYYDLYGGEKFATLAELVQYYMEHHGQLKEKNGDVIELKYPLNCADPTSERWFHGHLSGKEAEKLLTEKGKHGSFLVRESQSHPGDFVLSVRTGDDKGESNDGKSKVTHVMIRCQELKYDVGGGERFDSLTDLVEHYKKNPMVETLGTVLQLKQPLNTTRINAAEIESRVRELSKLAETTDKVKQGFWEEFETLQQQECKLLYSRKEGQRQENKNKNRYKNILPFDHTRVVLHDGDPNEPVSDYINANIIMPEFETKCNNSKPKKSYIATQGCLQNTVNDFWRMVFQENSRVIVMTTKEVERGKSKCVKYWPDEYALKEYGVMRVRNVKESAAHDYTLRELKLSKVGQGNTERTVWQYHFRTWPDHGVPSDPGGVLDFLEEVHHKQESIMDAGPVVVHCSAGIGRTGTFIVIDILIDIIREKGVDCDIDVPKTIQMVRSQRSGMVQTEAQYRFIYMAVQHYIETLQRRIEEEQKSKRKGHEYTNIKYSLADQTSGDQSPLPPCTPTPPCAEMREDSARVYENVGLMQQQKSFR
# test description: Degradation activity on SHP2 protein in MV-411 cells (Western blot, DC50)
# Format: cell-based
# Parameters: endogenous in cells
# particulars: MV411 cells, 24 hours, read-out: Degradation activity for differenct cell lines MV411 (DC50)
# Protocol: […] (3) After 24 hours of cultivation, the cells were lysed using RIPA cell lysate, and the proteins were extracted. The protein concentration was measured using a BCA assay kit. […] (6) The images were analyzed with Image J grayscale, and the degradation ratio of protein bands in the test group was calculated, based on the negative control group (DMSO) (100%). […]
readout name: DC50

Consider the worked cases shown below.
CC1(N)CCN(c2cnc(Sc3cccc(NC(=O)CCCCCCCN4CC5(C4)CN(c4ccc(C(=O)NCc6ccc7c(c6)CN(C6CCC(=O)NC6=O)C7=O)nn4)C5)c3)cn2)CC1 (centres unmarked) [Compound 81]: < 100 nM
CC1(N)CCN(c2cnc(Sc3cccc(NC(=O)CCCCCCCOC4CCN(c5ncc(C(=O)Nc6ccc7c(c6)CN(C6CCC(=O)NC6=O)C7=O)cn5)CC4)c3)cn2)CC1 (centres unmarked) [Compound 93]: < 100 nM
CC1(N)CCN(c2cnc(Sc3cccc(NC(=O)CCCCCCCN4CC5(C4)CN(C(=O)/C=C/C(=O)NCc4ccc6c(c4)CN(C4CCC(=O)NC4=O)C6=O)C5)c3)cn2)CC1 (centres unmarked) [Compound 114]: > 1000 nM
CC1(CN)CCN(c2cnc(Sc3cccc(NC(=O)CCC(=O)N4CCN(CCCCCCCCC(=O)Nc5ccc6c(c5)C(=O)N(C5CCC(=O)NC5=O)C6)CC4)c3Cl)cn2)CC1 (centres unmarked) [Compound 16]: < 100 nM

Field: next molecule
The measured DC50 associated with CN(Cc1ccc2c(c1)CN(C1CCC(=O)NC1=O)C2=O)C(=O)c1cnc(N2CCC3(CN(CCCCCCC(=O)Nc4cccc(Sc5cnc(N6CCC(C)(N)CC6)cn5)c4)C3)C2)cn1 (centres unmarked) [Compound 180] reads < 100 nM

----------
Below is a list of entries, each paired with its recorded DC50 value.
# measurement target: SHP2 protein (Homo sapiens, UniProt Q06124)
# test description: Degradation activity on SHP2 protein in MIA Paca-2 cells (Western blot, DC50)
# Format: cell-based
# Set-up: endogenous in cells; host or cells: MIA Paca-2 cells
# particulars: read-out: Degradation activity for differenct cell lines MIA Paca-2 (DC50)
Counter-ions that a name gives are not always drawn.

Consider the worked cases shown below.
CC1(N)CCN(c2cnc(Sc3cccc(NC(=O)c4ccc(N5CCC(N6CC=C(c7ccc(C(=O)NCc8ccc9c(c8)CN(C8CCC(=O)NC8=O)C9=O)nc7)CC6)CC5)cc4F)c3)cn2)CC1 (stereo not drawn) [Compound 405]: 100 to 1000 nM
C[C@@H]1OCC2(CCN(c3cnc(Sc4cccc(NC(=O)c5ccc(C6CC(N7CC=C(c8ccc(C(=O)NCc9ccc%10c(c9)CN(C9CCC(=O)NC9=O)C%10=O)nc8)CC7)C6)cc5)c4)cn3)CC2)[C@@H]1N (stereo partly drawn) [Compound 504]: < 100 nM
CC(CCCCCCCC(=O)Nc1cccc(Sc2cnc(N3CCC(C)(N)CC3)cn2)c1)N1CC=C(c2ccc(C(=O)NCc3ccc4c(c3)CN(C3CCC(=O)NC3=O)C4=O)nc2)C(C)(C)C1 (stereo not drawn) [Compound 245]: < 100 nM
CC1(N)CCN(c2cnc(Sc3cccc(NC(=O)c4ccc(N5CCC(N6CC=C(c7ccc(C(=O)NCc8ccc9c(c8)CN(C8CCC(=O)NC8=O)C9=O)nc7)CC6)CC5)nc4)c3)cn2)CC1 (stereo not drawn) [Compound 324]: < 100 nM
C[C@@H]1OCC2(CCN(c3cnc(Sc4cccc(NC(=O)c5ccc(N6CCC(N7CCN(c8ccc(C(=O)NCc9ccc%10c(c9)CN(C9CCC(=O)NC9=O)C%10=O)c(F)c8)CC7)CC6)c(F)c5)c4)cn3)CC2)[C@@H]1N (stereo partly drawn) [Compound 501, hydrochloride]: < 100 nM

The measured DC50 associated with CC1(N)CCN(c2cnc(Sc3cccc(NC(=O)c4cc(F)c(N5CCC(N6CC=C(c7ccc(C(=O)NCc8ccc9c(c8)CN(C8CCC(=O)NC8=O)C9=O)nc7)CC6)CC5)c(F)c4)c3)cn2)CC1 (stereo not drawn) [Compound 471] reads 100 to 1000 nM

The measured DC50 associated with CC1(N)CCN(c2cnc(Sc3cccc(NC(=O)c4ccc(N5CCC(N6CCN(c7cnc(C(=O)NCc8ccc9c(c8)CN(C8CCC(=O)NC8=O)C9=O)cc7Cl)CC6)CC5)c(F)c4)c3)cn2)CC1 (stereo not drawn) [Compound 496] reads < 100 nM
